Reference for the values: patent US9249125B2

Some compounds, each annotated with its measured IC50.
- system-name: GSK3α (Homo sapiens (Human), UniProt P49840)
- Sequence (P49840 whole entry): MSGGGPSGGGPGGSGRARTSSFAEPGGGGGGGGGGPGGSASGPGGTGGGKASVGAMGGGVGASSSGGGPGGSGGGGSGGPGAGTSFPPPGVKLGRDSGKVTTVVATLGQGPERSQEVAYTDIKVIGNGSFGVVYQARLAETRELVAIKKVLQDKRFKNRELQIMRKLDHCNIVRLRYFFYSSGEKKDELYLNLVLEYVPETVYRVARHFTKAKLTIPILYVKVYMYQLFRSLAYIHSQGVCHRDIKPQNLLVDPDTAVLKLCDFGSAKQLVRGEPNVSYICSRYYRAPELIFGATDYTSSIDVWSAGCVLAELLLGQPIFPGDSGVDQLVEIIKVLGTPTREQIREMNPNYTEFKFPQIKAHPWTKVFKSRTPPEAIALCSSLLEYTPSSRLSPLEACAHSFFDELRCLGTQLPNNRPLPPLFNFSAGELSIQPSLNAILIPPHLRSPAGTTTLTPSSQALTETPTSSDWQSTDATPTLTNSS
metric-name: IC50 (nM)

CC(C)(C)c1cc(NC(=O)Nc2ccc(Oc3ccnc(Nc4ccc5c(c4)NC(=O)C5)n3)c3ccccc23)n(-c2cccc(OCCN3CCOCC3)c2)n1 1170
Cc1cc(Nc2nccc(Oc3ccc(NC(=O)Nc4cc(C(C)(C)C)nn4-c4ccc(OCCN5CCOCC5)cc4)c4ccccc34)n2)cc2cn[nH]c12 1800
COc1ccc(-n2nc(C(C)(C)C)cc2NC(=O)Nc2ccc(Oc3ccnc(Nc4ccc5[nH]nc(C(=O)N(C)C)c5c4)n3)c3ccccc23)cc1 472
